# Test system: Acanthoscelides obtectus
# assay_remarks: Insecticidal activity against Acanthoscelides obtectus assessed as mortality at 50 ug applied on thoracic tergite at 25 +/- 0.5 degC and 75 +/- 5 % RH without food for 12 hr
# Type: functional

[
  {
    "molecule": "CC1(C)C2COC(=O)C21 (centres undefined)",
    "mortality (%)": 100
  },
  {
    "molecule": "CC1(C)C(C=C(Cl)Cl)C1C(=O)OCc1cccc(Oc2ccccc2)c1 (centres undefined)",
    "mortality (%)": 100
  },
  {
    "molecule": "COC(=O)[C@H]1[C@H](C=Cc2ccccc2OC)C1(C)C",
    "mortality (%)": 87.5
  },
  {
    "molecule": "COC(=O)[C@@H]1[C@@H](C=O)C1(C)C",
    "mortality (%)": 90
  },
  {
    "molecule": "COC(=O)[C@H]1[C@H](C=Cc2cccc(OC)c2)C1(C)C",
    "mortality (%)": 82.5
  },
  {
    "molecule": "COC(=O)[C@H]1[C@H](C=Cc2ccccc2Cl)C1(C)C (mixture of isomers)",
    "mortality (%)": 97.5
  },
  {
    "molecule": "CCOc1ccc(C=C[C@H]2[C@H](C(=O)OC)C2(C)C)cc1",
    "mortality (%)": 97.5
  },
  {
    "molecule": "COC(=O)[C@H]1[C@H](C=Cc2c(F)c(F)c(F)c(F)c2F)C1(C)C",
    "mortality (%)": 100
  },
  {
    "molecule": "COC(=O)[C@H]1[C@H](C=O)C1(C)C",
    "mortality (%)": 100
  }
]

---

# Test system: Ascia monuste
# assay_remarks: Insecticidal activity against Ascia monuste orseis assessed as mortality at 10 ug applied on thoracic tergite at 25 +/- 0.5 degC and 75 +/- 5 % RH with food for 12 hr
# Type: functional
Reported mortality values for the following compounds.

[
  {
    "compound": "COC(=O)[C@H]1[C@H](C=Cc2ccccc2Cl)C1(C)C (mixture of isomers)",
    "target_desc": "Ascia monuste",
    "mortality": "100%"
  },
  {
    "compound": "COC(=O)[C@@H]1[C@@H](C=O)C1(C)C",
    "target_desc": "Ascia monuste",
    "mortality": "50%"
  },
  {
    "compound": "CCOc1ccc(C=C[C@H]2[C@H](C(=O)OC)C2(C)C)cc1",
    "target_desc": "Ascia monuste",
    "mortality": "75%"
  },
  {
    "compound": "CC1(C)C2COC(=O)C21 (centres undefined)",
    "target_desc": "Ascia monuste",
    "mortality": "100%"
  },
  {
    "compound": "COC(=O)[C@H]1[C@H](C=O)C1(C)C",
    "target_desc": "Ascia monuste",
    "mortality": "27.5%"
  },
  {
    "compound": "CC1(C)C(C=C(Cl)Cl)C1C(=O)OCc1cccc(Oc2ccccc2)c1 (centres undefined)",
    "target_desc": "Ascia monuste",
    "mortality": "100%"
  },
  {
    "compound": "COC(=O)[C@H]1[C@H](C=Cc2c(F)c(F)c(F)c(F)c2F)C1(C)C",
    "target_desc": "Ascia monuste",
    "mortality": "100%"
  },
  {
    "compound": "COC(=O)[C@H]1[C@H](C=Cc2cccc(OC)c2)C1(C)C",
    "target_desc": "Ascia monuste",
    "mortality": "75%"
  },
  {
    "compound": "COC(=O)[C@H]1[C@H](C=Cc2ccccc2OC)C1(C)C",
    "target_desc": "Ascia monuste",
    "mortality": "62.5%"
  }
]
